Source listed as patent US20250121082A1.

- ASSAY TARGET: T1, Human CD228 protein (human, UniProt P08582 20-708, limits assumed)
- T1 construct: Recombinant protein made in CHO cells, purified over a Ni column; The printed entry begins with the leader (MRGPSG...) and ends with ten His; also called hCD228; CD228-His protein
- T1 sequence: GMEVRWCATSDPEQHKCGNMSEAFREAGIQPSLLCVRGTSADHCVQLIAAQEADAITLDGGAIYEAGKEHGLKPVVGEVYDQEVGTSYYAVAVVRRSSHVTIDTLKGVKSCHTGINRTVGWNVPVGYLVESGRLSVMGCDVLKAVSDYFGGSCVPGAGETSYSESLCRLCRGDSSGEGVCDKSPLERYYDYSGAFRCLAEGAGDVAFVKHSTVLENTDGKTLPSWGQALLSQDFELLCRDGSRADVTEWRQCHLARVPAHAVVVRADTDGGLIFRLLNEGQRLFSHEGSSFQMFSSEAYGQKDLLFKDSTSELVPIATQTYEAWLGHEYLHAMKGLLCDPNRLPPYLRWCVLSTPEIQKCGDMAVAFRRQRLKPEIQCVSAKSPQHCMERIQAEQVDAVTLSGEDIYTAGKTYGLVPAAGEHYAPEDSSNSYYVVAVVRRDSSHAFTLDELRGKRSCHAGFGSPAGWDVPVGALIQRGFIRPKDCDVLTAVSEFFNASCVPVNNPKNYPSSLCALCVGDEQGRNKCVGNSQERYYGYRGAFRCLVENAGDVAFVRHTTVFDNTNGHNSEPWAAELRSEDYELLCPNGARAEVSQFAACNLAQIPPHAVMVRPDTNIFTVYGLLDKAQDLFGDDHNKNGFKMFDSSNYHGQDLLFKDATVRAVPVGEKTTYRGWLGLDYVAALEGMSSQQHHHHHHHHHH
- MEASUREMENT PROTOCOL: Octet competition on His-chip CD228; competitor: CA13
# competition (1-response value/blank value) listing for each entry below
Note: unit % is implicit; provide only the numeric part.

Consider the following illustrative entries.
INSERT INTO assay_data (binder, readout_value) VALUES
  ('BA352 (antibody, human IgG1, kappa, V domains shown, Intact IgG1) VH: EVQLVESGGGVVQPGRSLRLSCAASGFTFSSYAMHWVRQAPGKGLEWVAVISYDGSNKYYADSVKGRFTISRDNSKNTLYLQMNSLRAEDTAVYYCARGPYLAAAGTALTFDIWGQGTMVTVSS VL: DIQMTQSPSAMSASVGDRVTITCRASQGINNYLAWFQQKPGKVPKRLIYAASSLQSGVPSRFSGSGSGTEFTLTISSLQPEDFATYYCLQHNSYPFTFGPGTKVDIKR', -8),
  ('CA67 (antibody, human IgG1, kappa, V domains shown, Intact IgG1) VH: EVQLVESGGGVVQPGRSLRLSCAASGFTFSSYAMHWVRQAPGKGLEWVAVISYDGSNKYYADSVKGRFTISRDNSKNTLYLQMNSLRAEDTAVYYCARDVYHYGSRSPYYYGMDVWGQGTTVTVSS VL: DIQMTQSPSSLSASVGDRVTITCRASQAISNYLAWYQQKPGKVPKLLIYAASTLHPGVPSRFSGSGSGTDFTLTISSLQPEDVATYYCQKYNSAPFTFGPGTKVDIKR', 102),
  ('CA518 (antibody, human IgG1, kappa, V domains shown, Intact IgG1) VH: EVQLVESGGGVVQPGRSLRLSCAASGFTFSSYAMHWVRQAPGKGLEWVAVISYDGSNKYHADSVKGRFTISRDNSKNTLFLQMNSLRAEDTAVYYCVRDVYHYGSRSPYYYGMDVWGQGTTVTVSS VL: DIQMTQSPSSVSASVGDRVTITCRASQGISSWLAWYQQKPGKAPKLLIYAASSLQSGVPSRFSGSGSGTDFTLTISSLQPEDVATYYCQKYNSAPFTFGPGTKVDIKR', 98);

Now look at this one.
Value lookup for competition (1-response value/blank value); key = CA13 (antibody, human IgG1, kappa, V domains shown, Intact IgG1 from fully human antibody-transgenic mice) VH: EVQLVESGGGVVQPGRSLRLSCAASGFTFSSYAMHWVRQAPGKGLEWVAVISYDGSNKYYADSVKGRFTISRDNSKNTLFLQMNSLRAEDTAVYYCARDVYHYGSRSPYYYGMDVWGQGTTVTVSS VL: DIVMTQSPSSLSASVGDRVTITCRASQGISNYLAWFQQKPGKVPKLLIYAASTLQSGVPSRFSGSGSGTDFTLTISSLQPEDVATYYCQKYNSAPFTFGPGTKVDIKR
100
